Source: patent US9951044B2

- target-desc: His-DNMT1 (182 kDa, human) (Homo sapiens, UniProt P26358)
- Construct: His; made in house
- Sequence (P26358 whole entry): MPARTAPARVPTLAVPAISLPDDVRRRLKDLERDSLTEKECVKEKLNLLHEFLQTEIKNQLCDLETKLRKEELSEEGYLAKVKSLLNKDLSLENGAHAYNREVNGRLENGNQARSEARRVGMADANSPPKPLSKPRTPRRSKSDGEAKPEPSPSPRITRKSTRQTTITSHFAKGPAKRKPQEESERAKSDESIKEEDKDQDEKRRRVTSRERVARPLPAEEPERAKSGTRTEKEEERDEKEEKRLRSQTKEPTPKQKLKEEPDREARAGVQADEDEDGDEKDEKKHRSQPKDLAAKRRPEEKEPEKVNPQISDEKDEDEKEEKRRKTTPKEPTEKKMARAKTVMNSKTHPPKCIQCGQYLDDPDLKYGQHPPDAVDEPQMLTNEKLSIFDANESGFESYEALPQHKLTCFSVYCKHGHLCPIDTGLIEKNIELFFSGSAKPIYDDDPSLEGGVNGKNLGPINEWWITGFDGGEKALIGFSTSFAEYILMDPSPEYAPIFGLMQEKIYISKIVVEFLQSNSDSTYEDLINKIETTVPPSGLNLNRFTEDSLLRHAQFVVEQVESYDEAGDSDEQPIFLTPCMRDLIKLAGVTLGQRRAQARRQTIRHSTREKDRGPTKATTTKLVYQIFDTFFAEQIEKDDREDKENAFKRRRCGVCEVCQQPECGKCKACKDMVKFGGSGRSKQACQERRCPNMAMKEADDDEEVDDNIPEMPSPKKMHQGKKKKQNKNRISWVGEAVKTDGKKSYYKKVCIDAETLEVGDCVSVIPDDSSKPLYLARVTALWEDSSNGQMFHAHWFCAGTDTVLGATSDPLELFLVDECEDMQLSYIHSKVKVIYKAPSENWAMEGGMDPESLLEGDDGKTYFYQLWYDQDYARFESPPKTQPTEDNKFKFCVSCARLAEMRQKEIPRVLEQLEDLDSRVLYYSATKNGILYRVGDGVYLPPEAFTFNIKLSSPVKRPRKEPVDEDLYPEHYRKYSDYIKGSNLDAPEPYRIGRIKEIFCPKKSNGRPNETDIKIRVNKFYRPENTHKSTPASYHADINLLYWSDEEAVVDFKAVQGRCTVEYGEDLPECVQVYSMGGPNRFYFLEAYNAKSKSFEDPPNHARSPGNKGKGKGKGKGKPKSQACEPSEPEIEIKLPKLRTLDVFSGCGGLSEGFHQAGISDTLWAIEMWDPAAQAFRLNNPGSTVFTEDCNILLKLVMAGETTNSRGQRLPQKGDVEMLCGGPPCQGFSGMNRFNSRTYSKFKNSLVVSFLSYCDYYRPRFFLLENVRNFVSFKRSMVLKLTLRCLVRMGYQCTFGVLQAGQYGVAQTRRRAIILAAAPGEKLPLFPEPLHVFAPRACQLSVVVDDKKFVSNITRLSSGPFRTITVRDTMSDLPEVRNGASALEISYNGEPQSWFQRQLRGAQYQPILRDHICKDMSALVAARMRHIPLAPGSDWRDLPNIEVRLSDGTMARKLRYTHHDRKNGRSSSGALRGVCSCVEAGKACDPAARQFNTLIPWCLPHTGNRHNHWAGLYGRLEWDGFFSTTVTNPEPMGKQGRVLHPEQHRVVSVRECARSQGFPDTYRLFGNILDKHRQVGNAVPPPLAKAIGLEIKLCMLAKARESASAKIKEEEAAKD
- test-method-notes: DNMT1 assay ([methyl-3H] SAM Flashplate)
- Format: biochemical
- condition-info: compound at 32 μM; read-out: DNMT1 (% of inhibition) 32 μM
Could you please classify the records by inhibition at 32 µM using these ranges: 1: < 40%; 2: ≥ 40% and < 80%; 3: ≥ 80%

Some entries whose results are on file:
{"molecule": "O=[N+]([O-])c1ccc(CCNc2ncnc3cc(OCC4CCN(CCNc5ccnc6ccccc56)CC4)ccc23)cc1 [AE]", "label": 2}
{"molecule": "c1ccc(CNc2ncnc3cc(OCC4CCN(CCNc5ccnc6ccccc56)CC4)ccc23)cc1 [Compound P]", "label": 1}
{"molecule": "Nc1ccc(CCNc2ncnc3cc(OCC4CCN(CCNc5ccnc6ccccc56)CC4)ccc23)cc1 [AH]", "label": 2}
{"molecule": "Clc1ccc(CCNc2ncnc3cc(OCC4CCN(CCNc5ccnc6ccccc56)CC4)ccc23)cc1 [AC]", "label": 2}

Lookup: Hi there! Could you help me figure out the category for c1ccc(-c2ccc(CNc3ncnc4cc(OCC5CCN(CCNc6ccnc7ccccc67)CC5)ccc34)cc2)cc1 [Compound N] please?
Found: 1

Lookup: Hi there! Could you help me figure out the category for NS(=O)(=O)c1ccc(CCNc2ncnc3cc(OCC4CCN(CCNc5ccnc6ccccc56)CC4)ccc23)cc1 [AD] please?
Found: 2

Lookup: Hi there! Could you help me figure out the category for O=c1c2ccc(OCC3CCN(CCNc4ccnc5ccccc45)CC3)cc2ncn1CCCc1ccccc1 [Compound R] please?
Found: 2

Lookup: Hi there! Could you help me figure out the category for Cc1cc(NCCNc2ncnc3cc(OCC4CCN(CCNc5ccnc6ccccc56)CC4)ccc23)nc(N)n1 [Compound Q] please?
Found: 2

Lookup: Hi there! Could you help me figure out the category for O=c1c2ccc(OCC3CCN(CCNc4ccnc5ccccc45)CC3)cc2ncn1CCNc1ccnc2ccccc12 [Compound M] please?
Found: 3

Lookup: Hi there! Could you help me figure out the category for c1ccc(CCCNc2ncnc3cc(OCC4CCN(CCNc5ccnc6ccccc56)CC4)ccc23)cc1 [Compound G] please?
Found: 1

Lookup: Hi there! Could you help me figure out the category for c1ccc(CCNc2ncnc3cc(OCC4CCN(CCNc5ccnc6ccccc56)CC4)ccc23)cc1 [Compound O] please?
Found: 1

Lookup: Hi there! Could you help me figure out the category for c1ccc2c(NCCNc3ncnc4cc(OCC5CCN(CCNc6ccnc7ccccc67)CC5)ccc34)ccnc2c1 [AI] please?
Found: 3

Lookup: Hi there! Could you help me figure out the category for Clc1ccccc1CCNc1ncnc2cc(OCC3CCN(CCNc4ccnc5ccccc45)CC3)ccc12 [AB] please?
Found: 2

Lookup: Hi there! Could you help me figure out the category for COc1ccc(CCNc2ncnc3cc(OCC4CCN(CCNc5ccnc6ccccc56)CC4)ccc23)cc1 [AG] please?
Found: 2

Lookup: Hi there! Could you help me figure out the category for c1ccc(NCCNc2ncnc3cc(OCC4CCN(CCNc5ccnc6ccccc56)CC4)ccc23)cc1 [AK] please?
Found: 3

----------
- target-desc: human C-terminal DNMT3A (a.a. 623-908) (Homo sapiens)
- Construct: The human C-terminal DNMT3A (a.a. 623-908); made in house
- test-method-notes: DNMT3A assay (restriction-based fluorescence)
- Format: biochemical
- condition-info: compound at 32 μM; read-out: DNMT3A (% of inhibition) 32 μM
result-type: inhibition at 32 µM (%)
State the answer as a number, implicitly in %.

Some solved cases for reference:
{"molecule-smiles": "c1ccc(-c2ccc(CNc3ncnc4cc(OCC5CCN(CCNc6ccnc7ccccc67)CC5)ccc34)cc2)cc1", "inhibition at 32 µM (%)": 83}
{"molecule-smiles": "Nc1ncnc2cc(OCC3CCN(CCNc4ccnc5ccccc45)CC3)ccc12", "inhibition at 32 µM (%)": 68}
{"molecule-smiles": "CCCNc1ncnc2cc(OCC3CCN(CCNc4ccnc5ccccc45)CC3)ccc12", "inhibition at 32 µM (%)": 69}

Lookup: Find the recorded inhibition at 32 µM belonging to "c1ccc(NCCNc2ncnc3cc(OCC4CCN(CCNc5ccnc6ccccc56)CC4)ccc23)cc1" and report it.
Found: 5

Lookup: Find the recorded inhibition at 32 µM belonging to "Nc1ccc(NCCN2CCC(COc3ccc4c(NCCCc5ccccc5)ncnc4c3)CC2)cc1" and report it.
Found: 65

Lookup: Find the recorded inhibition at 32 µM belonging to "CC(C)c1ccc(CCNc2ncnc3cc(OCC4CCN(CCNc5ccnc6ccccc56)CC4)ccc23)cc1" and report it.
Found: 83

Lookup: Find the recorded inhibition at 32 µM belonging to "Cc1cc(NCCNc2ncnc3cc(OCC4CCN(CCNc5ccnc6ccccc56)CC4)ccc23)nc(N)n1" and report it.
Found: 68

Lookup: Find the recorded inhibition at 32 µM belonging to "Clc1ccccc1CCNc1ncnc2cc(OCC3CCN(CCNc4ccnc5ccccc45)CC3)ccc12" and report it.
Found: 100

----------
- target-desc: human C-terminal DNMT3A (a.a. 623-908) (Homo sapiens)
- Construct: The human C-terminal DNMT3A (a.a. 623-908); made in house
- test-method-notes: DNMT3A assay (restriction-based fluorescence)
- Format: biochemical
- condition-info: compound at 10 μM; read-out: DNMT3A (% of inhibition) 10 μM
Binary call on inhibition at 10 µM: Met from 30% upward, Not met beneath that.

Some entries whose results are on file:
{"compound": "c1ccc2c(NCCNc3ncnc4cc(OCC5CCN(CCNc6ccnc7ccccc67)CC5)ccc34)ccnc2c1 [AI]", "target-desc": "human C-terminal DNMT3A (a.a. 623-908) (Homo sapiens)", "label": "Met"}
{"compound": "CCCNc1ncnc2cc(OCC3CCN(CCNc4ccnc5ccccc45)CC3)ccc12 [Compound H]", "target-desc": "human C-terminal DNMT3A (a.a. 623-908) (Homo sapiens)", "label": "Not met"}
{"compound": "Clc1ccc(CCNc2ncnc3cc(OCC4CCN(CCNc5ccnc6ccccc56)CC4)ccc23)cc1 [AC]", "target-desc": "human C-terminal DNMT3A (a.a. 623-908) (Homo sapiens)", "label": "Met"}

Lookup: Reported inhibition at 10 µM reaches at least 30% for COCn1ccc(NCCN2CCC(COc3ccc4c(NCCCc5ccccc5)ncnc4c3)CC2)nc1=O [Compound K] ?
Found: Not met

Lookup: Reported inhibition at 10 µM reaches at least 30% for Nc1ncnc2cc(OCC3CCN(CCNc4ccnc5ccccc45)CC3)ccc12 [Compound I] ?
Found: Not met

Lookup: Reported inhibition at 10 µM reaches at least 30% for O=c1c2ccc(OCC3CCN(CCNc4ccnc5ccccc45)CC3)cc2ncn1CCCc1ccccc1 [Compound R] ?
Found: Met

Lookup: Reported inhibition at 10 µM reaches at least 30% for c1ccc(NCCNc2ncnc3cc(OCC4CCN(CCNc5ccnc6ccccc56)CC4)ccc23)cc1 [AK] ?
Found: Met

Lookup: Reported inhibition at 10 µM reaches at least 30% for COc1ccc(CCNc2ncnc3cc(OCC4CCN(CCNc5ccnc6ccccc56)CC4)ccc23)cc1 [AG] ?
Found: Met

----------
molecules and their reported inhibition at 32 µM
- target-desc: human C-terminal DNMT3A (a.a. 623-908) (Homo sapiens)
- Construct: The human C-terminal DNMT3A (a.a. 623-908); made in house
- test-method-notes: DNMT3A assay (restriction-based fluorescence)
- Assay type: biochemical
- condition-info: read-out: DNMT3A (% of inhibition) 32 μM
State the answer as a number, implicitly in %.

Some solved cases for reference:
{"molecule-smiles": "Clc1ccc2c(NCCN3CCC(COc4ccc5c(NCCCc6ccccc6)ncnc5c4)CC3)ccnc2c1", "result-type": "inhibition at 32 µM", "value-observed": 62}
{"molecule-smiles": "COc1ccc2c(NCCN3CCC(COc4ccc5c(NCCCc6ccccc6)ncnc5c4)CC3)ccnc2c1", "result-type": "inhibition at 32 µM", "value-observed": 80}
{"molecule-smiles": "c1ccc(CCCNc2ncnc3cc(OCC4CCN(CCNc5ccc6ncccc6c5)CC4)ccc23)cc1", "result-type": "inhibition at 32 µM", "value-observed": 60}
{"molecule-smiles": "CN(CCN1CCC(COc2ccc3c(NCCCc4ccccc4)ncnc3c2)CC1)c1ccnc2ccccc12", "result-type": "inhibition at 32 µM", "value-observed": 66}

Switching to the query record.
Lookup: Find the recorded inhibition at 32 µM belonging to "COc1cc2nccc(NCCN3CCC(COc4ccc5c(NCCCc6ccccc6)ncnc5c4)CC3)c2cc1OC" and report it.
Found: 95

----------
compounds and their reported inhibition at 32 µM
- target-desc: human C-terminal DNMT3A (a.a. 623-908) (Homo sapiens, UniProt Q9Y6K1)
- Construct: The human C-terminal DNMT3A (a.a. 623-908); made in house
- Sequence (Q9Y6K1 627-912 limits assumed): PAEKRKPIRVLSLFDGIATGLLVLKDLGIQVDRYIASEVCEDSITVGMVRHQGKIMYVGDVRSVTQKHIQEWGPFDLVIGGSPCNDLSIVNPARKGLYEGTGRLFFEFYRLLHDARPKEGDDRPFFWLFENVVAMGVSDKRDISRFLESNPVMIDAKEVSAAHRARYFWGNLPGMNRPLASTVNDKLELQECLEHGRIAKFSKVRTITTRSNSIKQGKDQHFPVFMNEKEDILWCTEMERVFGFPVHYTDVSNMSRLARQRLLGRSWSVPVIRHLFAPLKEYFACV
- test-method-notes: DNMT3A assay (restriction-based fluorescence)
- Assay type: biochemical
- condition-info: compound at 32 μM; read-out: DNMT3A (% of inhibition) 32 μM
State the answer as a number, implicitly in %.

Some solved cases for reference:
{"compound": "O=c1c2ccc(OCC3CCN(CCNc4ccnc5ccccc45)CC3)cc2ncn1CCCc1ccccc1 [Compound R]", "unit-annotation": "%", "inhibition at 32 µM": 99}
{"compound": "O=c1c2ccc(OCC3CCN(CCNc4ccnc5ccccc45)CC3)cc2ncn1CCNc1ccnc2ccccc12 [Compound M]", "unit-annotation": "%", "inhibition at 32 µM": 91}
{"compound": "O=CN(CCCNc1ccnc2ccccc12)CCCOc1ccc2c(NCCCc3ccccc3)ncnc2c1 [Compound E]", "unit-annotation": "%", "inhibition at 32 µM": 51}
{"compound": "c1ccc(CCCNc2ncnc3cc(OCCNc4ccnc5ccccc45)ccc23)cc1 [Compound S]", "unit-annotation": "%", "inhibition at 32 µM": 95}
{"compound": "c1ccc(CCCNc2ncnc3cc(OCC4CCN(CCNc5ccnc6ccccc56)C4)ccc23)cc1 (centres unmarked) [Compound AM]", "unit-annotation": "%", "inhibition at 32 µM": 81}
{"compound": "COCn1ccc(NCCN2CCC(COc3ccc4c(NCCCc5ccccc5)ncnc4c3)CC2)nc1=O [Compound K]", "unit-annotation": "%", "inhibition at 32 µM": 44}

Lookup: Find the recorded inhibition at 32 µM belonging to c1ccc(CN2CCC(Nc3ncnc4cc(OCC5CCN(CCNc6ccnc7ccccc67)CC5)ccc34)CC2)cc1 [AL] and report it.
Found: 93

Lookup: Find the recorded inhibition at 32 µM belonging to c1ccc(CCCNc2ncnc3cc(OCCCNCCCNc4ccnc5ccccc45)ccc23)cc1 [Compound A] and report it.
Found: 85
